pIC50 for assorted compounds
tgt: Tyrosine-protein phosphatase non-receptor type 1 (Homo sapiens, UniProt P18031)
Sequence (P18031 whole entry): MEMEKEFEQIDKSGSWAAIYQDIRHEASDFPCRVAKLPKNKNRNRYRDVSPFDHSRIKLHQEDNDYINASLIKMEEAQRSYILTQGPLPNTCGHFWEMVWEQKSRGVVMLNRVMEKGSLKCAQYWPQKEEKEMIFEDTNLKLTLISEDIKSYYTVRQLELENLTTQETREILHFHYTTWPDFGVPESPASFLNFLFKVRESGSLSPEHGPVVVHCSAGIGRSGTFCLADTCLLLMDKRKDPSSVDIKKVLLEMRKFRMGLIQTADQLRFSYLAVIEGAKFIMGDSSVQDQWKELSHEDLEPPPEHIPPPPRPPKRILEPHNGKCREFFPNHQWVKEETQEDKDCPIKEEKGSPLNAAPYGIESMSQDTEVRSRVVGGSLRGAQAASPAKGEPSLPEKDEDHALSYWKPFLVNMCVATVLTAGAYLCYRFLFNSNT
protocol notes: Non-competitive reversible inhibition of human PTP1B
settings: read-out: IC50
Please treat pIC50 as minus the base-10 logarithm of the molar concentration.

test smiles	pIC50
CCOc1ccc(N2N=C3COC(C)(C)C=C3C(C#N)=C2N)cc1	5.49
CC1(C)C=C2C(=NN(c3cccc(CO)c3)C(N)=C2C#N)CO1	5.62
CC1(C)C=C2C(=NN(c3ccc(CO)cc3)C(N)=C2C#N)CO1	5.77

Which pIC50 value belongs to `CC1(C)C=C2C(=NN(c3ccccc3F)C(N)=C2C#N)CO1` ?
5.62

Which pIC50 value belongs to `CC1(C)C=C2C(=NN(c3ccccc3)C(N)=C2C#N)CO1` ?
5.24

Which pIC50 value belongs to `CC1(C)C=C2C(=NN(c3ccccc3Oc3ccccc3)C(N)=C2C#N)CO1` ?
4.80
